Test system: 994946-033-R-J1-PDC complex spheroid viability
ASSAY_PROCEDURE: Anticancer human tumor 994946-033-R-J1-PDC patient-derived melanoma cell line growth inhibition [POLQ]; active = viability on the fitted dose curve at most 10% of control; inactive = the rest
COND: second compound 1 µM; first compound 0.01 µM
Respond only with the outcome that fits, drawn from 1 for active, 0 for inactive

Solved entries:
>>> group("CC[C@@]1(O)C(=O)OCc2c1cc1n(c2=O)Cc2cc3c(CN(C)C)c(O)ccc3nc2-1 + Cc1cccc(N(C)C(=O)C2C(O)CCN2c2nc(C)cc(C(F)(F)F)c2C#N)c1")
0
>>> group("CC[C@@]1(O)C(=O)OCc2c1cc1n(c2=O)Cc2cc3c(CN(C)C)c(O)ccc3nc2-1 + COC1C(OC(N)=O)C(O)C(Oc2ccc3c(O)c(NC(=O)c4ccc(O)c(CC=C(C)C)c4)c(=O)oc3c2C)OC1(C)C")
0
>>> group("COc1cccc(OCCCN)c1-c1cc(Nc2cnc(C#N)cn2)n[nH]1 + Cc1cccc(N(C)C(=O)C2C(O)CCN2c2nc(C)cc(C(F)(F)F)c2C#N)c1")
0
>>> group("Cn1ncnc1[C@H]1c2n[nH]c(=O)c3cc(F)cc(c23)N[C@@H]1c1ccc(F)cc1 + COC1C(OC(N)=O)C(O)C(Oc2ccc3c(O)c(NC(=O)c4ccc(O)c(CC=C(C)C)c4)c(=O)oc3c2C)OC1(C)C")
0
>>> group("C=CCn1c(=O)c2cnc(Nc3ccc(N4CCN(C)CC4)cc3)nc2n1-c1cccc(C(C)(C)O)n1 + Nc1ccc(C#CCN(C(=O)Cc2ncc(C(F)(F)F)cc2C(F)(F)F)c2ccc(F)cc2)nn1")
0

Input: Query: recorded result category for CCc1c2c(nc3ccc(O)cc13)-c1cc3c(c(=O)n1C2)COC(=O)[C@]3(O)CC + Cc1cccc(N(C)C(=O)C2C(O)CCN2c2nc(C)cc(C(F)(F)F)c2C#N)c1 in this test
Output: 0

Input: Query: recorded result category for C=CCn1c(=O)c2cnc(Nc3ccc(N4CCN(C)CC4)cc3)nc2n1-c1cccc(C(C)(C)O)n1 + COC1C(OC(N)=O)C(O)C(Oc2ccc3c(O)c(NC(=O)c4ccc(O)c(CC=C(C)C)c4)c(=O)oc3c2C)OC1(C)C in this test
Output: 0

Input: Query: recorded result category for Cn1ncnc1[C@H]1c2n[nH]c(=O)c3cc(F)cc(c23)N[C@@H]1c1ccc(F)cc1 + Cc1cccc(N(C)C(=O)C2C(O)CCN2c2nc(C)cc(C(F)(F)F)c2C#N)c1 in this test
Output: 0

Input: Query: recorded result category for Cn1ncnc1[C@H]1c2n[nH]c(=O)c3cc(F)cc(c23)N[C@@H]1c1ccc(F)cc1 + Nc1ccc(C#CCN(C(=O)Cc2ncc(C(F)(F)F)cc2C(F)(F)F)c2ccc(F)cc2)nn1 in this test
Output: 0

Input: Query: recorded result category for CCc1c2c(nc3ccc(O)cc13)-c1cc3c(c(=O)n1C2)COC(=O)[C@]3(O)CC + COC1C(OC(N)=O)C(O)C(Oc2ccc3c(O)c(NC(=O)c4ccc(O)c(CC=C(C)C)c4)c(=O)oc3c2C)OC1(C)C in this test
Output: 1

Input: Query: recorded result category for CC[C@@]1(O)C(=O)OCc2c1cc1n(c2=O)Cc2cc3c(CN(C)C)c(O)ccc3nc2-1 + Nc1ccc(C#CCN(C(=O)Cc2ncc(C(F)(F)F)cc2C(F)(F)F)c2ccc(F)cc2)nn1 in this test
Output: 0

Input: Query: recorded result category for C=CCn1c(=O)c2cnc(Nc3ccc(N4CCN(C)CC4)cc3)nc2n1-c1cccc(C(C)(C)O)n1 + Cc1cccc(N(C)C(=O)C2C(O)CCN2c2nc(C)cc(C(F)(F)F)c2C#N)c1 in this test
Output: 0

Input: Query: recorded result category for COc1cccc(OCCCN)c1-c1cc(Nc2cnc(C#N)cn2)n[nH]1 + Nc1ccc(C#CCN(C(=O)Cc2ncc(C(F)(F)F)cc2C(F)(F)F)c2ccc(F)cc2)nn1 in this test
Output: 0

* * *

System: 994946-033-R-J1-PDC complex spheroid viability
ASSAY_PROCEDURE: Anticancer human tumor 994946-033-R-J1-PDC cell line growth inhibition [POLQ];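 note: spheroids exposed to drugs for 7 days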
COND: curve of first compound; second compound 0.1 µM
MEASUREMENT_TYPE: IC50 (µM)
# number only, unit µM dropped from output

>>> reported("C#Cc1c(F)ccc2cc(O)cc(-c3ncc4c(N5CC6CCC(C5)N6)nc(OCC56CCCN5CC(F)C6)nc4c3F)c12 (centres undefined) + Cc1cccc(N(C)C(=O)C2C(O)CCN2c2nc(C)cc(C(F)(F)F)c2C#N)c1")
7.26
>>> reported("O=C(Nc1ccc(O)c(NS(=O)(=O)c2ccc(F)cc2)c1)c1ccc(-c2ccccc2)cc1 + Nc1ccc(C#CCN(C(=O)Cc2ncc(C(F)(F)F)cc2C(F)(F)F)c2ccc(F)cc2)nn1")
4.79
>>> reported("COc1cc(C2c3cc4c(cc3C(OC3OC5COC(C)OC5C(O)C3O)C3COC(=O)C23)OCO4)cc(OC)c1O (centres undefined) + COC1C(OC(N)=O)C(O)C(Oc2ccc3c(O)c(NC(=O)c4ccc(O)c(CC=C(C)C)c4)c(=O)oc3c2C)OC1(C)C")
0.237
>>> reported("O=C(Nc1ccc(O)c(NS(=O)(=O)c2ccc(F)cc2)c1)c1ccc(-c2ccccc2)cc1 + COC1C(OC(N)=O)C(O)C(Oc2ccc3c(O)c(NC(=O)c4ccc(O)c(CC=C(C)C)c4)c(=O)oc3c2C)OC1(C)C")
6.29
>>> reported("C#Cc1c(F)ccc2cc(O)cc(-c3ncc4c(N5CC6CCC(C5)N6)nc(OCC56CCCN5CC(F)C6)nc4c3F)c12 (centres undefined) + COC1C(OC(N)=O)C(O)C(Oc2ccc3c(O)c(NC(=O)c4ccc(O)c(CC=C(C)C)c4)c(=O)oc3c2C)OC1(C)C")
5.48
>>> reported("CC1COCCN1c1cc(-c2ccnn2C)c2ccnc(-c3ccn[nH]3)c2n1 (centres undefined) + Nc1ccc(C#CCN(C(=O)Cc2ncc(C(F)(F)F)cc2C(F)(F)F)c2ccc(F)cc2)nn1")
0.0729
>>> reported("CC(C)n1c(=O)n(C)c2cnc3cc(F)c(-c4ccc(OCCCN5CCCCC5)nc4)cc3c21 + COC1C(OC(N)=O)C(O)C(Oc2ccc3c(O)c(NC(=O)c4ccc(O)c(CC=C(C)C)c4)c(=O)oc3c2C)OC1(C)C")
5.03
>>> reported("CCCS(=O)(=O)Nc1ccc(F)c(C(=O)c2c[nH]c3ncc(-c4ccc(Cl)cc4)cc23)c1F + Nc1ccc(C#CCN(C(=O)Cc2ncc(C(F)(F)F)cc2C(F)(F)F)c2ccc(F)cc2)nn1")
6.95
>>> reported("CC1COCCN1c1cc(-c2ccnn2C)c2ccnc(-c3ccn[nH]3)c2n1 (centres undefined) + COC1C(OC(N)=O)C(O)C(Oc2ccc3c(O)c(NC(=O)c4ccc(O)c(CC=C(C)C)c4)c(=O)oc3c2C)OC1(C)C")
0.0792
>>> reported("COc1cc(C2c3cc4c(cc3C(OC3OC5COC(C)OC5C(O)C3O)C3COC(=O)C23)OCO4)cc(OC)c1O (centres undefined) + Cc1cccc(N(C)C(=O)C2C(O)CCN2c2nc(C)cc(C(F)(F)F)c2C#N)c1")
0.164

Input: Give the measured IC50 of O=c1[nH]cc(F)c(=O)[nH]1 + COC1C(OC(N)=O)C(O)C(Oc2ccc3c(O)c(NC(=O)c4ccc(O)c(CC=C(C)C)c4)c(=O)oc3c2C)OC1(C)C .
Output: 8.3

Input: Give the measured IC50 of O=C(c1cc(Cc2n[nH]c(=O)c3ccccc23)ccc1F)N1CCN(C(=O)C2CC2)CC1 + Nc1ccc(C#CCN(C(=O)Cc2ncc(C(F)(F)F)cc2C(F)(F)F)c2ccc(F)cc2)nn1 .
Output: 6.45

Input: Give the measured IC50 of CC[C@@]1(O)C(=O)OCc2c1cc1n(c2=O)Cc2cc3c(CN(C)C)c(O)ccc3nc2-1 + Cc1cccc(N(C)C(=O)C2C(O)CCN2c2nc(C)cc(C(F)(F)F)c2C#N)c1 .
Output: 0.0191

* * *

Tested on: 994946-033-R-J1-PDC complex spheroid viability
ASSAY_PROCEDURE: Anticancer human tumor 994946-033-R-J1-PDC cell line growth inhibition [POLQ];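 note: spheroids exposed to drugs for 7 days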;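 for viability, T/C: 100% = DMSO vehicle treated spheroids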
COND: second compound 3.16 µM; first compound 0.0316 µM; stronger effect = lower value
MEASUREMENT_TYPE: viability, T/C (%)
# number only, unit % dropped from output

>>> reported("CCc1c2c(nc3ccc(O)cc13)-c1cc3c(c(=O)n1C2)COC(=O)[C@]3(O)CC + Cc1cccc(N(C)C(=O)C2C(O)CCN2c2nc(C)cc(C(F)(F)F)c2C#N)c1")
8.11
>>> reported("COc1ccc([C@@H](O)c2cc(-c3ncnc4cc(N5CCOCC5)ccc34)c(F)cc2Cl)nn1 + Nc1ccc(C#CCN(C(=O)Cc2ncc(C(F)(F)F)cc2C(F)(F)F)c2ccc(F)cc2)nn1")
109
>>> reported("COc1cccc2c1C(=O)c1c(O)c3c(c(O)c1C2=O)CC(O)(C(=O)CO)CC3OC1CC(N)C(O)C(C)O1 (stereo not given) + Nc1ccc(C#CCN(C(=O)Cc2ncc(C(F)(F)F)cc2C(F)(F)F)c2ccc(F)cc2)nn1")
32.4
>>> reported("C=CC(=O)N1CCN(c2nc(=O)n(-c3c(C)ccnc3C(C)C)c3nc(-c4c(O)cccc4F)c(F)cc23)C(C)C1 (stereo not given) + COC1C(OC(N)=O)C(O)C(Oc2ccc3c(O)c(NC(=O)c4ccc(O)c(CC=C(C)C)c4)c(=O)oc3c2C)OC1(C)C")
94
>>> reported("CC1COCCN1c1cc(-c2ccnn2C)c2ccnc(-c3ccn[nH]3)c2n1 (stereo not given) + Cc1cccc(N(C)C(=O)C2C(O)CCN2c2nc(C)cc(C(F)(F)F)c2C#N)c1")
49

Input: Give the measured viability, T/C of COc1cccc(OCCCN)c1-c1cc(Nc2cnc(C#N)cn2)n[nH]1 + Nc1ccc(C#CCN(C(=O)Cc2ncc(C(F)(F)F)cc2C(F)(F)F)c2ccc(F)cc2)nn1 .
Output: 47.5

Input: Give the measured viability, T/C of COc1cc2cc(C(=O)CCC(=O)O)sc2cc1OC + Cc1cccc(N(C)C(=O)C2C(O)CCN2c2nc(C)cc(C(F)(F)F)c2C#N)c1 .
Output: 120

Input: Give the measured viability, T/C of CCc1cc2c(N3CCc4c(cc(Cn5ccnc5)cc4-c4cn(C)nc4C(F)(F)F)C3=O)cc(C)nc2c(OC)n1 + COC1C(OC(N)=O)C(O)C(Oc2ccc3c(O)c(NC(=O)c4ccc(O)c(CC=C(C)C)c4)c(=O)oc3c2C)OC1(C)C .
Output: 66

Input: Give the measured viability, T/C of COc1cc2cc(C(=O)CCC(=O)O)sc2cc1OC + COC1C(OC(N)=O)C(O)C(Oc2ccc3c(O)c(NC(=O)c4ccc(O)c(CC=C(C)C)c4)c(=O)oc3c2C)OC1(C)C .
Output: 101

Input: Give the measured viability, T/C of CC1COCCN1c1cc(-c2ccnn2C)c2ccnc(-c3ccn[nH]3)c2n1 (stereo not given) + COC1C(OC(N)=O)C(O)C(Oc2ccc3c(O)c(NC(=O)c4ccc(O)c(CC=C(C)C)c4)c(=O)oc3c2C)OC1(C)C .
Output: 76.4

Input: Give the measured viability, T/C of Cn1ncnc1[C@H]1c2n[nH]c(=O)c3cc(F)cc(c23)N[C@@H]1c1ccc(F)cc1 + COC1C(OC(N)=O)C(O)C(Oc2ccc3c(O)c(NC(=O)c4ccc(O)c(CC=C(C)C)c4)c(=O)oc3c2C)OC1(C)C .
Output: 70.4

Input: Give the measured viability, T/C of O=C(Nc1ccc(O)c(NS(=O)(=O)c2ccc(F)cc2)c1)c1ccc(-c2ccccc2)cc1 + Nc1ccc(C#CCN(C(=O)Cc2ncc(C(F)(F)F)cc2C(F)(F)F)c2ccc(F)cc2)nn1 .
Output: 114

Input: Give the measured viability, T/C of O=C(Nc1ccc(O)c(NS(=O)(=O)c2ccc(F)cc2)c1)c1ccc(-c2ccccc2)cc1 + Cc1cccc(N(C)C(=O)C2C(O)CCN2c2nc(C)cc(C(F)(F)F)c2C#N)c1 .
Output: 73.5

Input: Give the measured viability, T/C of CC(C)n1c(=O)n(C)c2cnc3cc(F)c(-c4ccc(OCCCN5CCCCC5)nc4)cc3c21 + Nc1ccc(C#CCN(C(=O)Cc2ncc(C(F)(F)F)cc2C(F)(F)F)c2ccc(F)cc2)nn1 .
Output: 96.6

Input: Give the measured viability, T/C of COc1cc(C2c3cc4c(cc3C(OC3OC5COC(C)OC5C(O)C3O)C3COC(=O)C23)OCO4)cc(OC)c1O (stereo not given) + Nc1ccc(C#CCN(C(=O)Cc2ncc(C(F)(F)F)cc2C(F)(F)F)c2ccc(F)cc2)nn1 .
Output: 84.8
